# System: SW-620
# procedureSummary: NCI tumour cell line growth inhibition, 48 h
Calls of active or inactive are those of the source. Rule as the data show it: active = GI50 up to about 1.1 µM and inactive = higher. Where a SMILES comes first, the peptide text is derived from it. [ ]: non-standard residue; d: D form. Ac5c = NC1(C(=O)O)CCCC1
One label from this list, please: True = active, False = inactive

For this molecule, state the assay outcome: `O=C(O)c1cc(/N=N/c2ccc([As](=O)(O)O)cc2)ccc1O`
False

For this molecule, state the assay outcome: `Cc1cc(C)c(-c2noc(-c3ccc(Cl)cc3)c2C2=NCCCN2)c(C)c1`
False

For this molecule, state the assay outcome: `CC(=O)O[C@H]1/C(=C/c2ccc(N(C)C)cc2)C[C@H]2[C@@H]3CC=C4C[C@@H](N5CCCC5)CC[C@]4(C)[C@H]3CC[C@]12C`
False

For this molecule, state the assay outcome: O=c1c(O)c(-c2cc(O)c(O)cc2O)oc2cc(O)c(C3OC(CO)C(O)C(O)C3O)c(O)c12 (configuration not stated)
False

For this molecule, state the assay outcome: CCN(CC)CC1CCCCN1CC(=O)N1c2cc(Cl)ccc2NC(=O)CC1C (configuration not stated)
False

For this molecule, state the assay outcome: `CCCCP(CCCC)(CCCC)=C(C(=O)OC)C(C(=O)OC)=C1SC(C(=O)OC)=C(C(=O)OC)S1`
False

For this molecule, state the assay outcome: `C[N+](C)(C)CCOP(=O)([O-])OCCNC(=O)c1ccc2ccccc2c1`
False

For this molecule, state the assay outcome: `COC(=O)/C(C#N)=C1\NC(=O)c2ccccc21`
False

For this molecule, state the assay outcome: `COC(=O)c1nc(NN)cc(O)c1CCCCCc1c(O)nc(NN)nc1C(=O)OC`
False

For this molecule, state the assay outcome: `COC(=O)C1(Cc2ccccc2)Cc2ccccc2C1`
False

For this molecule, state the assay outcome: CCN(CC)C(=S)SC1CCOP(=O)(N(CCCl)CCCl)N1C (configuration not stated)
False

For this molecule, state the assay outcome: `NC1(CCCCCCCCCCC(=O)O)CNCCNCCNCCNC1`
False

For this molecule, state the assay outcome: Cc1ccc(S(=O)(=O)NC(=O)NC(C(=O)O)C(C)C)cc1 (configuration not stated)
False

For this molecule, state the assay outcome: COc1ccc(-c2coc3cc(OC)cc(O)c3c2=O)cc1 [4',7-DIMETHOXY-5-HYDROXYGENISTEIN]
False

For this molecule, state the assay outcome: CC(=O)c1nc2ccccc2n1C(C)C(=O)c1ccccc1 (configuration not stated)
False

For this molecule, state the assay outcome: C/C1=C\[C@@H](O)C(=O)/C=C/C=C\c2csc(n2)[C@@H](C)NC(=O)C[C@@]2(CC1)[S+]([O-])SC(=O)[C@]2(C)O (some centres not stated)
True

For this molecule, state the assay outcome: `O=C(O)COCC(=O)N(CCOCCN(Cc1ccccc1)C(=O)COCC(=O)O)Cc1ccccc1`
False

For this molecule, state the assay outcome: COc1cc(C2c3cc4c(cc3[C@@H](Nc3ccccc3)C3COC(=O)[C@H]23)OCO4)cc(OC)c1O (some centres not stated)
True

For this molecule, state the assay outcome: `CC[C@H](C)N(CCN)C(=O)c1cc2ccccc2c(-c2ccccc2Cl)n1`
False

For this molecule, state the assay outcome: Cc1ccc(C2(N3CCCC3)OC(C)(C)c3cccc4cccc2c34)cc1 (configuration not stated)
False

For this molecule, state the assay outcome: NC1(C(=O)NC2(C(=O)O)CCCC2)CCCC1 (H-[Ac5c]-[Ac5c]-OH)
False

For this molecule, state the assay outcome: O=C1OC2C(O)COC2(O)C1(O)Cc1c[nH]c2ccccc12 (configuration not stated)
False

For this molecule, state the assay outcome: `O=C(NCCCC/N=c1/cccccc1NCCCCNC(=O)OCc1ccccc1)OCc1ccccc1`
False

For this molecule, state the assay outcome: `O=C(NCCCNCCCCNCCCNC(=O)c1cc(-c2ccccc2)nc2ccccc12)c1cc(-c2ccccc2)nc2ccccc12`
False

For this molecule, state the assay outcome: `O=C(CCN1CCCCC1)C(=Cc1ccccc1)C(=O)CCN1CCCCC1`
False

For this molecule, state the assay outcome: `CCOC(=O)C(CCC(N)=O)(CCC(=O)OC)C(=O)OCC`
False

For this molecule, state the assay outcome: `CN(C)CCNC(=O)c1cc([N+](=O)[O-])cn1C`
False

For this molecule, state the assay outcome: `CN(C)CCCNc1ccc2c(=O)n(CCN(C)C)c(=O)n3c4ccccc4c(=O)c1c23`
True

For this molecule, state the assay outcome: `O=S(=O)(c1cnccc1N1CCN(CCO)CC1)N1CCCC1`
False

For this molecule, state the assay outcome: O=c1n(-c2ccccc2)c(=O)n2n1C1C=CC2C2C(C1)C2(Cl)Cl (configuration not stated)
False

For this molecule, state the assay outcome: `COc1cc2c(cc1OC)[C@H](C)N1CCc3cc(OC)c(OC)cc3[C@@H]1C2`
False

For this molecule, state the assay outcome: `O=C(/C=C/c1ccccc1)CCC1C(=O)c2ccccc2C1=O`
False
